Tested on: IGROV-1
EXPERIMENTAL_PROTOCOL: NCI tumour cell line growth inhibition, 48 h
The source made the active and inactive calls. Rule as the data show it: active = GI50 up to about 1.1 µM and inactive = higher.
// classify into t (active), f (inactive)

Returns: the outcome recorded for CCN(CC)/N=C\c1c2ccccc2cc2ccccc12 in this assay. f

Record: CC1(C)CC(=O)C2=C(C1)OC1=C(CC(C)(C)CC1=O)C2c1ccccc1Cl (configuration not stated) f

Record: O=C(NC(=O)c1cn(CCN2CCNCC2)c(=O)[nH]c1=O)OCc1ccccc1 f

Record: COc1c(OC(C)C)c(OC(C)C)c2oc(=O)n3c2c1C(c1ccccc1-n1c(C)ccc1C)C=C3 (configuration not stated) f

Record: O=C(C(O)c1cn(Cc2ccccc2)c2ccccc12)N1CCCCC1 (configuration not stated) f

Record: NNC(=O)c1c(Cl)c(Cl)c(Cl)c(Cl)c1-c1nc2ccccc2[nH]1 f

Record: CC1/C=C/[C@@]2(C)CCC(C(C)(C)O)C2C(O)C[C@](C)(O)/C=C/C1 (some centres not stated) f

Record: N#Cc1c(O)c(/N=N/c2ccc(Cl)cc2)c(=O)n2c1[nH]c1ccccc12 f

Record: COP(=O)(Cc1ccc(/C=C/C#N)o1)OC f

Record: COC(=O)[C@]1(Cc2ccc3ccccc3c2)CCCCCCN1C(=O)c1ccccc1 f

Record: Nn1c(Nc2ccc(S(=O)(=O)Nc3ncccn3)cc2)nnc(/C=C/c2c(O)ccc3ccccc23)c1=O f

Record: CN(C)/C=N/CCN1CCOCC1 f

Record: CCN(CC)C(=S)SC(C(=O)Nc1nnc(-c2ccccc2)o1)c1ccccc1 (configuration not stated) f

Record: CCCN(CCCC(NC(C)=O)C(=O)NCc1ccccc1)C(=O)NCCCl (configuration not stated) f

Record: CN1CCN(C(=S)N(C(=O)c2cccs2)C2CCCCC2)CC1 f

Record: N=C(N)SCc1cccc([N+](=O)[O-])c1 f

Record: CNC(N)NC f

Record: Cc1ccccc1NC(=O)c1c(C)oc2c1C(=O)c1ccccc1C2=O f

Record: CN(C)CCN1C(=O)c2cccc3cc([N+](=O)[O-])cc(c23)C1=O [MITONAFIDE] t

Record: O=C(CCc1ccc(O)c(O)c1)NCCc1ccc(O)c(O)c1 f

Record: CCCCC/C=C1\CC(CO)(COC(=O)CC(C(C)C)C(C)C)OC1=O (configuration not stated) f

Record: COc1ccc2c(c1)C1C(CO2)C(c2ccccc2)=NN1c1ccccc1 (configuration not stated) f

----------
Can you tell me GI50 for the items I'm about to list?
System: KM12
EXPERIMENTAL_PROTOCOL: NCI tumour cell line growth inhibition, 48 h
The source made the active and inactive calls. Cut-off read from the data, not from the text of the source: active = GI50 up to about 1.1 µM and inactive = higher.

Returns the measured GI50 for the input molecule. Input: Oc1ccc(C(O)(c2ccccc2)c2ccccc2)c2ccccc12 2.07 µM (inactive)

Record: COC(=O)c1c(CC(Cc2ccc3c(c2)CCCC3)C(=O)O)ccc2c1CCCC2 (stereo unspecified) 27.4 µM (inactive)

Record: N=C1SCCS1 > 100 µM (inactive)

Record: COc1ccc(/C=N/n2c(C)n[nH]c2=O)cc1 > 100 µM (inactive)

Record: O=c1c2cc([N+](=O)[O-])cnc2sn1-c1ccc(Oc2ccccc2)cc1 78.5 µM (inactive)

Record: O=C(CCSC1=NCCCN1)c1ccc(F)cc1 19.7 µM (inactive)

----------
System: OVCAR-5
EXPERIMENTAL_PROTOCOL: NCI tumour cell line growth inhibition, 48 h
Active and inactive are the calls of the source. Cut-off read from the data, not from the text of the source: active = GI50 up to about 1.1 µM and inactive = higher.
// classify into active, inactive

Returns: the outcome recorded for Clc1cc(Cl)cc(/N=C/C=C/Nc2cc(Cl)cc(Cl)c2)c1 in this assay. inactive

Record: O=C(O)[C@@H]1C[C@@H](O)CN1C(=O)OCc1ccccc1 inactive

Record: O=[N+]([O-])c1cccc2nc3ccccc3c(NCCO)c12 active

Record: Cc1c(/C=N/NC(=S)Nc2ccc(Cl)cc2)c(=O)n(-c2ccccc2)n1C inactive

Record: O=C1N=C2Sc3ccc4ccccc4c3N2C1=O inactive

Record: C/C1=N\[N-]C(=O)c2ccccc2C(=O)N/N=C(\C)c2cccc1n2.O=[N+]([O-])[O-].[Zn+2] inactive

Record: COc1cc(/C=N\NC(=O)C[N+](C)(C)C)cc(OC)c1OC inactive

Record: CCCCOCn1c(=O)[nH]c(=O)c2cc(Br)ccc21 inactive

Record: Cn1cnnc1Sc1c([N+](=O)[O-])ncn1C inactive

Record: CC(C)(C)OC(=O)C1/C(=C/CO)CN1C(=O)OC(C)(C)C (stereo unspecified) inactive

Record: CC(C)N(C(C)C)P(OCCC#N)OC1CC(n2cnc3c(=O)[nH]cnc32)OC1COC(=O)NCCCCCCNC(=O)OC(C)(C)c1ccc(-c2ccccc2)cc1 (stereo unspecified) inactive

Record: CCOc1cc(NC(C)=O)ccc1C(=O)NN1C(=O)C(Cl)C1c1ccccc1 (stereo unspecified) inactive

Record: NC(=O)N/N=C\c1ccccc1OCc1cccc(COc2ccccc2/C=N\NC(N)=O)n1 inactive

Record: COc1cc(/C=C2/C[C@H]3[C@@H]4CC=C5C[C@@H](O)CC[C@]5(C)[C@H]4CC[C@]3(C)NC2=O)cc(OC)c1OC inactive

Record: O=c1c2cc([N+](=O)[O-])cnc2sn1-c1ccc(Oc2ccccc2)cc1 inactive

Record: COc1cc(Cc2c(C)cc(OC)c3[nH]c4ccccc4c23)cc2c1[nH]c1ccccc12 inactive

Record: C[C@H](O)C1CC(Cn2nnc3c(N)ncnc32)C1(C)C (stereo partly specified) inactive

Record: Oc1ccc(C(O)(c2ccccc2)c2ccccc2)c2ccccc12 inactive

Record: CC1=CC(=O)C(=CN2C(=O)/C(=C\c3cccnc3)NC2=S)C(=O)O1 inactive

Record: OC1(c2ccc3ccccc3c2)c2ccc3ccccc3c2C2=NCCN21 (stereo unspecified) inactive

Record: O=P(NCCCO)(OCc1ccccc1)N(CCCl)CCCl (stereo unspecified) inactive

----------
Test system: NCI-H23
EXPERIMENTAL_PROTOCOL: NCI tumour cell line growth inhibition, 48 h
Calls of active or inactive are those of the source. Cut-off read from the data, not from the text of the source: active = GI50 up to about 1.1 µM and inactive = higher.
METRIC: GI50

Returns the measured GI50 for the input compound. Input: COc1ccc(N2C(=O)C3c4[nH]c5ccccc5c4C4CCCCCCCCCC4C3C2=O)cc1 (stereo not given) > 10 µM (inactive)

Record: NC(=O)N/N=C/C(/C=N/NC(N)=O)[N+](=O)[O-] > 100 µM (inactive)

Record: COc1ccc(/C=C/C(=O)c2sc(-n3nc(-c4ccccc4)cc3-c3ccccc3)nc2C)cc1OC 34.9 µM (inactive)

Record: C=CCOc1ccc(C(/N=N\c2ccc(Cl)cc2)=N/NC(=O)c2ccccc2)cc1OC 60 µM (inactive)

Record: Cc1ccccc1NC(=O)c1c(C)oc2c1C(=O)c1ccccc1C2=O 29.7 µM (inactive)

Record: CC1(c2ccc[n+](Cc3ccccc3)c2)OCCO1 > 100 µM (inactive)

Record: CCCCCCCCCCCCCC1=C(O)C(=O)C(CC2=C(O)C(=O)C(CCCCCCCCCCCCC)=C(O)C2=O)=C(O)C1=O > 100 µM (inactive)

Record: O=C1/C(=C/c2ccc3c(c2)CCC3)Cc2cc3c(cc21)CCC3 > 100 µM (inactive)

Record: CCOC(=O)c1csc(NC(=O)CN2CCN(C)CC2)n1 > 100 µM (inactive)

Record: COC(=O)[C@]1(Cc2ccc3ccccc3c2)CCCCCCN1C(=O)c1ccccc1 > 29.3 µM (inactive)

----------
Tested on: EKVX
EXPERIMENTAL_PROTOCOL: NCI tumour cell line growth inhibition, 48 h
Activity calls are given as the source filed them. No stated cut-off is given here; in the data, active = GI50 up to about 1.1 µM and inactive = higher.
// classify into YES (active), NO (inactive)

Returns: the outcome recorded for CCNCC(=O)O[C@]1(CC)C(=O)OCc2c1cc1n(c2=O)Cc2cc3ccccc3nc2-1 in this assay. NO

Record: O=C(Cc1nc2ccc(C(=O)c3ccccc3)cc2nc1O)C(=O)Nc1ccc(Br)cc1 NO

Record: COCC(=O)OC1CCn2c1nc1c2C(=O)C(C)=C(NC(C)=O)C1=N (stereo not drawn) NO

Record: CCCCC/C=C1\CC(CO)(COC(=O)CC(C(C)C)C(C)C)OC1=O (stereo not drawn) NO

Record: N#CCCN(CCC#N)c1ccc(/C=C(/NC(=O)c2cc([N+](=O)[O-])ccc2Cl)C(=O)N=[N+]=[N-])cc1 NO

Record: CC(=O)Oc1cc2c(cc1OC(C)=O)OCC(c1ccc(C)cc1)C2 (stereo not drawn) NO

Record: CC1(C)COC(C23C4C5C2C2C3C4C52I)=N1 (stereo not drawn) NO

Record: COc1cc(/C=C(\C#N)C(=O)c2ccccc2)ccc1O NO

Record: CCCCOc1ccc(S(=O)(=O)/N=C(\NN)Nc2ccc(Cl)cc2)cc1 NO

Record: C[C@H](O)C1CC(Cn2nnc3c(N)ncnc32)C1(C)C (stereo partly drawn) NO

Record: COc1ccc(NC(=O)CC(=O)n2nc(-c3ccccc3)c(/N=N/c3ccc(C)cc3)c2-c2ccccc2)cc1 NO

Record: N#Cc1c(-c2ccc(Cl)cc2)cc(-c2ccc(Nc3ccnc4cc(Cl)ccc34)cc2)nc1N NO

Record: O=C1C=C(Nc2ccc(S(=O)(=O)Nc3ncccn3)cc2)c2ccccc2C1=O NO

Record: COc1cc(C2c3[nH]c4ccccc4c3C[C@H]3COC(=O)N23)cc(OC)c1OC (stereo partly drawn) YES

Record: CCOC(=O)c1csc(NC(=O)CN2CCN(C)CC2)n1 NO

Record: CCCCCCCCCC1CC(=O)OC23CCCC(=O)C12O3 (stereo not drawn) NO

Record: CC1(c2ccc[n+](Cc3ccccc3)c2)OCCO1 NO

Record: SC1=NNC2(C(S)=N1)c1ccccc1-c1ccccc12 NO

Record: COC(=O)c1cccc(C)c1C1CN=NC12Cc1cc(C)cc(C)c1C2=O (stereo not drawn) NO

Record: Cc1ccc(N)cc1.O=S(=O)(O)/C(=C\c1ccccc1)c1ccccc1 NO

Record: COc1ccccc1NC(=O)C1=C(C)NC(C)=C(C(=O)Nc2ccccc2OC)C1c1ccc(N(C)C)cc1 NO

Record: CCCCCCCCCCCCCCCCCCOCC(O)CO (stereo not drawn) NO

Record: NC(CSC1c2ccccc2-c2ccccc21)C(=O)O (stereo not drawn) NO

The reported measurements were obtained from ChEMBL document CHEMBL1201862.
